assay: drug induced motor toxicity, inverted screen test; conditions: mouse, in vivo, ip; mice; motor toxicity TD50 versus maximal electroshock ED50; read-out: therapeutic index (TI)
measuredEndpoint: selectivity ratio

NC(=O)C12NC(Cc3ccccc31)c1ccccc12 (stereo not shown) = 5.6 to 6.2
